target_under_test: T1, Cynomolgus PSGL-1(ECD)-hFc1 (cynomolgus macaque)
T1 construct: also called Cyno PSGL1-Fc; Cyno PSGL-1(ECD)-Fc
method_description: ELISA, 20 nM mAb on plate cyno PSGL-1(ECD)-Fc
value_type: A450nm (A450 nm)
Give your result in A450 nm as a bare value.

Quick one: A450nm of 09A02 (antibody, IgG4, V domains shown) VH: EVQLVQSGGGLVKPGGSLRLSCAASGFTFRTAWMSWVRQAPGKGLEWVGRMKSKNDGGTTDYAAPVKGRFTISRDDSRDTVYLQMNSLKTEDTGVYYCATYAAGATVPWGQGTLVTVSS VL: DIVMTQTPLSAPVTLGQPASISCRSSRSLLQRNGYNYVDWYQQKAGNPPRLLIYLGSRRASGVPDRFSGSGSDKDFTLKISRVEADDVGFYFCKQSLQAPPTFGGGTKIEIT ? 0.73

Fill in: A450nm of 09D11 (antibody, IgG4, V domains shown) VH: QVQLVESGGGFIQPGGSLRLSCAASGLTFSNYAMTWVRQAPGKGLEWVSTISGGGGNTYYTDSVKGRFTISRDNSKNTLYLQMNSLKAEDTAVYRCAKGLAAALFDYWGQGTLVTVSS VL: DIVLTQSPDSLPVTPGEPASISCRSSRSLLHSNGHNFLAWYLQKPGQSPHLLIYLGSNRASGVPDRFSGSGSGTDFTLKISRVEAEDVGIYYCMQALQTPITFGQGTRLDIK is ___ 2.11

What value of A450nm has been recorded for this entry: 05H03 (antibody, IgG4, V domains shown) VH: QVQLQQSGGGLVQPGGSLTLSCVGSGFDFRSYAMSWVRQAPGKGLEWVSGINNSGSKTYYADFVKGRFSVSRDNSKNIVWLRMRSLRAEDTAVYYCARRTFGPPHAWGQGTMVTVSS VL: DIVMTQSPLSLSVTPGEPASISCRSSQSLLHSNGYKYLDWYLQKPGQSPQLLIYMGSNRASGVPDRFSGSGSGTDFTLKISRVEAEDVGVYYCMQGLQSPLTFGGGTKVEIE 2.01
